Target: T1, VEGF121 (human, UniProt P15692 27-147)
T1 construct: mature; Immobilized on the biosensor chip via primary amino groups; also called Purified VEGF121
T1 sequence (looked up): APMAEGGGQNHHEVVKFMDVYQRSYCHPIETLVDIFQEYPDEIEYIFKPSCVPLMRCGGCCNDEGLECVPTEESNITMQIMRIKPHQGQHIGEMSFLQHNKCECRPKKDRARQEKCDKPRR
Assay: BIAcore SPR, Fab over immobilized VEGF121
Please use MET for koff under 0.0003 s⁻¹ and NOT MET for everything else, ties included.

Take a look at these entries with their results.
Binder	Discrete Label
hu2.2 (Fab, name in Kabat numbering, V domains shown, soluble Fab with human constant domains) VH: EVQLVESGGGLVQPGGSLRLSCAASGYTFTNYGMNWIRQAPGKGLEWVGWINTYTGEPTYAADFKRRFTISRDNSKNTVYLQMNSLRAEDTAVYYCAKYPHYYGSSHWYFDVWGQGTLVTVSS VL: DIQLTQSPSSLSASVGDRVTITCSASQDISNYLNWYQQKPGKAPKLLIYFTSSLHSGVPSRFSGSGSGTDYTLTISSLQPEDFATYYCQQYSTVPWTFGQGTKVEIK	NOT MET
hu2.6 (Fab, name in Kabat numbering, V domains shown, soluble Fab with human constant domains) VH: EVQLVESGGGLVQPGGSLRLSCAASGYTFTNYGMNWIRQAPGKGLEWVGWINTYTGEPTYAADFKRRTTISLDTSASTVYLQMNSLRAEDTAVYYCAKYPHYYGSSHWYFDVWGQGTLVTVSS VL: DIQLTQSPSSLSASVGDRVTITCSASQDISNYLNWYQQKPGKAPKLLIYFTSSLHSGVPSRFSGSGSGTDFTLTISSLQPEDFATYYCQQYSTVPWTFGQGTKVEIK	NOT MET
hu2.1 (Fab, name in Kabat numbering, V domains shown, soluble Fab with human constant domains) VH: EVQLVESGGGLVQPGGSLRLSCAASGYTFTNYGMNWIRQAPGKGLEWVGWINTYTGEPTYAADFKRRFTISRDNSKNTVYLQMNSLRAEDTAVYYCAKYPHYYGSSHWYFDVWGQGTLVTVSS VL: DIQMTQSPSSLSASVGDRVTITCSASQDISNYLNWYQQKPGKAPKLLIYFTSSLHSGVPSRFSGSGSGTDYTLTISSLQPEDFATYYCQQYSTVPWTFGQGTKVEIK	NOT MET
hu2.10V (Fab, V domains shown, Soluble Fab with human constant domains; also called hu2.10 with mutation VL Leu->Val) VH: EVQLVESGGGLVQPGGSLRLSCAASGYTFTNYGMNWIRQAPGKGLEWVGWINTYTGEPTYAADFKRRFTISLDTSASTVYLQMNSLRAEDTAVYYCAKYPHYYGSSHWYFDVWGQGTLVTVSS VL: DIQMTQSPSSLSASVGDRVTITCSASQDISNYLNWYQQKPGKAPKVLIYFTSSLHSGVPSRFSGSGSGTDYTLTISSLQPEDFATYYCQQYSTVPWTFGQGTKVEIK	MET
hu2.10 (Fab, V domains shown, Soluble Fab with human constant domains; also called consensus clone hu2.10) VH: EVQLVESGGGLVQPGGSLRLSCAASGYTFTNYGMNWIRQAPGKGLEWVGWINTYTGEPTYAADFKRRFTISLDTSASTVYLQMNSLRAEDTAVYYCAKYPHYYGSSHWYFDVWGQGTLVTVSS VL: DIQMTQSPSSLSASVGDRVTITCSASQDISNYLNWYQQKPGKAPKLLIYFTSSLHSGVPSRFSGSGSGTDYTLTISSLQPEDFATYYCQQYSTVPWTFGQGTKVEIK	NOT MET
hu2.7 (Fab, name in Kabat numbering, V domains shown, soluble Fab with human constant domains) VH: EVQLVESGGGLVQPGGSLRLSCAASGYTFTNYGMNWIRQAPGKGLEWVGWINTYTGEPTYAADFKRRFTISRDNSKNTVYLQMNSLRAEDTAVYYCAKYPHYYGSSHWYFDVWGQGTLVTVSS VL: DIQLTQSPSSLSASVGDRVTITCSASQDISNYLNWYQQKPGKAPKLLIYFTSSLHSGVPSRFSGSGSGTDFTLTISSLQPEDFATYYCQQYSTVPWTFGQGTKVEIK	NOT MET

Kindly consider the entry below.
Field: below-cutoff. Rule: recorded koff strictly less than 0.0003 s⁻¹. Subject: chimeric F(ab) (Fab, V domains shown, also called chim-F(ab); A4.6.1 chimera) VH: EIQLVQSGPELKQPGETVRISCKASGYTFTNYGMNWVKQAPGKGLKWMGWINTYTGEPTYAADFKRRFTFSLETSASTAYLQISNLKNDDTATYFCAKYPHYYGSSHWYFDVWGAGTTVTVSS VL: DIQMTQTTSSLSASLGDRVIISCSASQDISNYLNWYQQKPDGTVKVLIYFTSSLHSGVPSRFSGSGSGTDYSLTISNLEPEDIATYYCQQYSTVPWTFGGGTKLEIKR
MET
